# System: HS 578T breast
# ASSAY_TEXT: NCI tumour cell line growth inhibition, 48 h
QUANTITY_KIND: TGI

MOLECULE: CC1C(OS(=O)(=O)c2ccc3[nH]c(=S)sc3c2)CC2C3(C)CCC2(C(C)C(=O)O)C(O)C13 (stereo not given)
TARGET_ENTITY: HS 578T breast
TGI: > 100 µM
--
MOLECULE: C(=NC12CC3CC(CC(C3)C1)C2)C1CCCCC1
TARGET_ENTITY: HS 578T breast
TGI: > 100 µM
--
MOLECULE: Cc1cn([C@H]2C[C@@H](N3C(=O)c4ccccc4C3=O)[C@@H](CO[Si](C)(C)C(C)(C)C)O2)c(=O)[nH]c1=O
TARGET_ENTITY: HS 578T breast
TGI: > 100 µM

What value of TGI has been recorded for this entry: `FC(F)(F)c1cccc(CNC2CCN(CCc3ccccc3)CC2)c1`
57.5 µM

What value of TGI has been recorded for this entry: `O=C1/C(=C/c2ccc(Br)s2)NC(=S)N1CN1CCCCC1`
> 100 µM

---

# System: DLD-1 colon
# ASSAY_TEXT: NCI tumour cell line growth inhibition, 48 h
QUANTITY_KIND: TGI

COMPOUND: CN(C)c1ccc(/C=C2\CCc3ccccc3C2=O)cc1Br
TGI: > 100 µM

Missing value: TGI, DLD-1 colon, entry CCOc1ccc(OP2(=O)NC(=O)C=C(C)N2)cc1 (stereo not drawn) . Fill in?
> 100 µM

Missing value: TGI, DLD-1 colon, entry `Nc1ccccc1C(=O)/C=C/c1ccccc1O` . Fill in?
> 100 µM

Missing value: TGI, DLD-1 colon, entry CC(C)CCCC(C)C1CCC2C3CC([N+](=O)[O-])=C4CC(O)CCC4(C)C3CCC12C (stereo not drawn) . Fill in?
35.9 µM

Missing value: TGI, DLD-1 colon, entry O=C1c2ccccc2C2(O)N(c3ccccc3)C(=S)N(c3ccccc3)C12O (stereo not drawn) . Fill in?
> 100 µM

Missing value: TGI, DLD-1 colon, entry `CNS(=O)(=O)NNS(=O)(=O)c1ccc(C)cc1` . Fill in?
> 100 µM

Missing value: TGI, DLD-1 colon, entry Cc1ccccc1NC(=O)C1C(=O)N(c2ccccc2C)C(=O)/C1=N\NC(N)=O (stereo not drawn) . Fill in?
> 100 µM

Missing value: TGI, DLD-1 colon, entry `CC1(C)CC(=O)C(C(=O)Nc2cccs2)=C(O)C1` . Fill in?
> 100 µM

Missing value: TGI, DLD-1 colon, entry C/C=C1/C=CC2c3[nH]c4ccccc4c3CCN2C1 (stereo not drawn) . Fill in?
> 400 µM

Missing value: TGI, DLD-1 colon, entry CC(=O)NC(CCCNC(=O)OCc1ccccc1)C(=O)NCc1ccccc1 (stereo not drawn) . Fill in?
> 100 µM

Missing value: TGI, DLD-1 colon, entry `C=C(C)c1nc(Oc2ccccc2)nc(Oc2ccccc2)n1` . Fill in?
6.62 µM

Missing value: TGI, DLD-1 colon, entry `COC(=O)N/N=c1\cc(C(=O)Nc2ccc(C)c(C)c2)oc2cc(O)ccc12` . Fill in?
> 100 µM

Missing value: TGI, DLD-1 colon, entry CCN(CC)c1ccc(Cl)c2c1C(O)(C(C)C)C2(C)C (stereo not drawn) . Fill in?
31.4 µM

---

# Tested on: NCI-H23 lung
# ASSAY_TEXT: NCI tumour cell line growth inhibition, 48 h
QUANTITY_KIND: TGI

Example results:
COMPOUND: Cc1cc(C=O)c2c(=O)c3c(O)ccc(/C=C/C(C)C)c3oc2c1
TGI: > 100 µM

COMPOUND: CCCCCC(=O)OC[n+]1cccc(-c2c(COC(=O)NC(C)C)c(COC(=O)NC(C)C)c3n2CCC3)c1
TGI: > 100 µM

COMPOUND: C=CCN(c1cc(O)c2c(c(C)cn2S(=O)(=O)c2ccccc2)c1[N+](=O)[O-])S(C)(=O)=O
TGI: > 100 µM

COMPOUND: Cc1nc2ccccc2n1Cc1nnc(-c2ccccc2)o1
TGI: > 100 µM

COMPOUND: O=c1c2cc(Br)ccc2nc(CNc2ccccc2)n1-c1ccccc1
TGI: 34.1 µM

What value of TGI has been recorded for this entry: CCCCCCCCCCCCOC1C(C(COC2OC(C(O)CO)C3OC(C)(C)OC23)OC(=O)Nc2ccccc2)OC2OC(C)(C)OC21 (centres undefined)
19.6 µM

What value of TGI has been recorded for this entry: O=C1NC(c2ccccc2Cl)Nc2ccccc21 (centres undefined)
> 100 µM

What value of TGI has been recorded for this entry: `COC(=O)N/N=c1\cc(C(=O)Nc2ccc(C)c(C)c2)oc2cc(O)ccc12`
> 100 µM

What value of TGI has been recorded for this entry: `Cc1cccc(C)c1NC(=O)C(=O)CC(=O)c1sc(Nc2c(C)cccc2C)nc1C`
> 100 µM

---

# System: ACHN renal
# ASSAY_TEXT: NCI tumour cell line growth inhibition, 48 h
GI50 reference

STRUCTURE_AS_SMILES: CN1CCN(C(=O)/C=C/c2ccc([N+](=O)[O-])o2)CC1
QUANTITY_KIND: GI50
ASSAY_VALUE: 3.29 µM

What value of GI50 has been recorded for this entry: `OCc1ccc(N2CCc3ccc(F)cc3C2)cc1Cl`
10.4 µM

What value of GI50 has been recorded for this entry: `N#C[Se]CCN1C(=O)c2ccccc2C1=O`
3.33 µM

---

# Tested on: SN12C renal
# ASSAY_TEXT: NCI tumour cell line growth inhibition, 48 h
QUANTITY_KIND: GI50

Example results:
MOLECULE: O=C(O)CSc1cc(NS(=O)(=O)c2ccc(Br)cc2)c2ccccc2c1O
GI50: 2.27 µM

MOLECULE: CCCCCCCCCCCCOC1C(C(COC2OC(C(O)CO)C3OC(C)(C)OC23)OC(=O)Nc2ccccc2)OC2OC(C)(C)OC21 (centres undefined)
GI50: 4.89 µM

MOLECULE: COc1ccccc1CNCCCN1C(=O)c2ccc3c4c(ccc(c24)C1=O)C(=O)N(CCCNCc1ccccc1OC)C3=O
GI50: 0.151 µM

MOLECULE: O=C1NC(=O)C2C3C=CC(C12)C1C2C(=O)NC(=O)C2C31 (centres undefined)
GI50: 419 µM

MOLECULE: CC(=O)O[C@H]1C[C@@H]2[C@@]3(C)CC[C@H]4C[C@@]4(C)[C@@H]3CC[C@@]2(C)C2=CCC3=C(COC3=O)[C@]21C
GI50: 18.7 µM

What value of GI50 has been recorded for this entry: `Cn1cc(-c2ccc3c(c2)ncn3-c2cc(NS(=O)(=O)C3CC3)cc(-c3ccc(F)cc3F)c2)cn1`
2.99 µM

What value of GI50 has been recorded for this entry: `COc1cc(/C=C/C(=O)c2nc3cc(F)ccc3nc2C)cc(OC)c1OC`
6.3 µM

What value of GI50 has been recorded for this entry: CN(C)CCCC1(c2ccc(F)cc2)OCc2cc(-c3csc4ccccc34)ccc21 (centres undefined)
1.63 µM

What value of GI50 has been recorded for this entry: `COc1cc2c(cc1C)NC(=O)/C2=C\c1ccc(Oc2ccccc2)cc1`
14.4 µM

---

TGI reference
# System: PC-3 prostate
# ASSAY_TEXT: NCI tumour cell line growth inhibition, 48 h

Example results:
MOLECULE: CCCCCCC1OC23OC1CCC2C(O)CCC3O (stereo not given)
QUANTITY_KIND: TGI
ASSAY_VALUE: > 100 µM
//
MOLECULE: O=C1c2ccccc2N1C(=O)c1ccccc1[N+](=O)[O-]
QUANTITY_KIND: TGI
ASSAY_VALUE: > 100 µM
//
MOLECULE: C/C(=C\c1csc(C)n1)[C@@H]1C[C@@H]2O[C@]2(C)CCC[C@H](C)[C@H](O)[C@@H](C)C(=O)C(C)(C)[C@@H](O)CC(=O)N1
QUANTITY_KIND: TGI
ASSAY_VALUE: < 1e-05 µM
//
MOLECULE: O=c1c(-c2ccccc2)c(SCCCN2CCCCC2)n(-c2ccccc2)c(=S)n1-c1ccccc1
QUANTITY_KIND: TGI
ASSAY_VALUE: 39.4 µM

What value of TGI has been recorded for this entry: COC(=O)c1c(C)cccc1C1CN=NC12Cc1cc(C)c(C)cc1C2=O (stereo not given)
> 100 µM

---

# Tested on: T-47D breast
# ASSAY_TEXT: NCI tumour cell line growth inhibition, 48 h
TGI reference

COMPOUND: CN1CCN(C(=O)/C=C/c2ccc([N+](=O)[O-])o2)CC1
ASSAY_VALUE: 45.4 µM

COMPOUND: COC(=O)C(=O)C(C(=O)C(=O)Nc1cccc(OC)c1)c1nc2ccc(Cl)cc2[nH]c1=O (stereo unspecified)
ASSAY_VALUE: > 100 µM

COMPOUND: CN(/N=C/c1ccccn1)C1=NCCN1
ASSAY_VALUE: > 100 µM

COMPOUND: CC(C)(C)OC(=O)/N=C/c1c(O)c2ccccc2oc1=O
ASSAY_VALUE: > 100 µM

What value of TGI has been recorded for this entry: Clc1ccc(C(OCn2ccnc2)c2nc3ccccc3[nH]2)c(Cl)c1 (stereo unspecified)
> 100 µM

What value of TGI has been recorded for this entry: `CCOC(=O)c1c(Cl)c2c(n1Cc1ccccc1)-c1oncc1CCC2`
> 100 µM

What value of TGI has been recorded for this entry: CN(C)CCCC1(c2ccc(F)cc2)OCc2cc(-c3csc4ccccc34)ccc21 (stereo unspecified)
3.7 µM

What value of TGI has been recorded for this entry: `CC(=O)O[C@H]1C[C@@H]2[C@@]3(C)CC[C@H]4C[C@@]4(C)[C@@H]3CC[C@@]2(C)C2=CCC3=C(COC3=O)[C@]21C`
54.7 µM

What value of TGI has been recorded for this entry: `Cc1[nH]c(=O)c2oc3cc4ccccc4cc3c2c1C(=O)O`
> 10 µM

What value of TGI has been recorded for this entry: `CCc1nc(N)nc(N)c1-c1ccc(N2CCOCC2)c(N=[N+]=[N-])c1`
> 100 µM

What value of TGI has been recorded for this entry: `Cc1nc2ccc(N=Nc3c(C)noc3C)cc2[nH]1`
15.2 µM

What value of TGI has been recorded for this entry: CC1=C(C(=O)Nc2ccc3[nH]ncc3c2)C(c2ccc(F)cc2)N=C(c2ccc(C(F)(F)F)nc2)N1 (stereo unspecified)
> 25 µM

What value of TGI has been recorded for this entry: O=C1C[C@@H]2OCC=C3C[N+]4([O-])CC[C@]56c7ccccc7N1[C@H]5[C@H]2[C@H]3C[C@@H]64 (stereo partly specified)
> 100 µM

What value of TGI has been recorded for this entry: `COC(=O)c1ccc(CCC2=CC(=O)C=CC2=O)cc1`
8.79 µM

What value of TGI has been recorded for this entry: `COc1ccc(OC/C(N)=N/NC(=O)c2ccncc2)cc1`
> 100 µM

What value of TGI has been recorded for this entry: `N#CCc1nc(-c2cc3ccccc3oc2=O)cs1`
> 100 µM

What value of TGI has been recorded for this entry: `CC[C@@H]1CC[C@@H]2[C@H](CC[C@]3(C)[C@@H](O[N+](=O)[O-])CC[C@@H]23)[C@H]1C(C)=O`
96.4 µM

What value of TGI has been recorded for this entry: `CCOC(=O)c1cn(-c2ccc([N+](=O)[O-])cc2)c(=S)n2c1nc1ccccc12`
> 100 µM

What value of TGI has been recorded for this entry: CC1(c2ccc(Cl)cc2)C=C(c2ccc(Cl)cc2)C(C#N)=C(C(C#N)C#N)N1 (stereo unspecified)
46.9 µM

What value of TGI has been recorded for this entry: `O=c1c2sc3ccccc3sc=2c(=O)c2c(Cl)c(Cl)c(Cl)c(Cl)c12`
> 100 µM

What value of TGI has been recorded for this entry: `Fc1ccc2c(c1)SC1=Nc3sc4cc(F)ccc4[n+]3CN12`
55.4 µM

These measurements were taken from PubChem BioAssay (NCI).
